System: MAPKAPK5;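 further: KINOMEscan kinase panel screen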
experimental.parameters: concentration: 1 μM, replicates: in singlicate; n = 1
measured.parameter: %Inh (%)
Just the number in %, nothing appended.

Example results:
>>> df
                                        smi  number
0  Cl.O=C(Nc1cccc(-c2nn3ncccc3c2-c2ccnc(Nc3cccnc3)n2)c1)c1c(F)cccc1F       0
1  Cn1ccc2ncnc(Oc3cccc(C(=O)Nc4ccccc4)c3)c21      12
2  CSc1nn2c(=O)cc(N3CCOCC3)nc2n1Cc1cccc(C(F)(F)F)c1C       0

Enquiry: What does the data say about its %Inh? Entry: `Cc1cccc(-c2cc(Nc3ccncc3)c3ccccc3n2)n1`
Return: 0

Enquiry: What does the data say about its %Inh? Entry: `Cc1cccc(-c2nc(-c3ccc(S(C)(=O)=O)cc3)sc2-c2ccnc(NCCc3ccccc3)c2)c1`
Return: 0
